Here, each record is paired with measured %inh 5-HT6 exp_2 data.
Molecular target: human 5-HT6 receptor (Homo sapiens, UniProt P50406)
Construct: expressed in transfected cells
Sequence (P50406 whole entry): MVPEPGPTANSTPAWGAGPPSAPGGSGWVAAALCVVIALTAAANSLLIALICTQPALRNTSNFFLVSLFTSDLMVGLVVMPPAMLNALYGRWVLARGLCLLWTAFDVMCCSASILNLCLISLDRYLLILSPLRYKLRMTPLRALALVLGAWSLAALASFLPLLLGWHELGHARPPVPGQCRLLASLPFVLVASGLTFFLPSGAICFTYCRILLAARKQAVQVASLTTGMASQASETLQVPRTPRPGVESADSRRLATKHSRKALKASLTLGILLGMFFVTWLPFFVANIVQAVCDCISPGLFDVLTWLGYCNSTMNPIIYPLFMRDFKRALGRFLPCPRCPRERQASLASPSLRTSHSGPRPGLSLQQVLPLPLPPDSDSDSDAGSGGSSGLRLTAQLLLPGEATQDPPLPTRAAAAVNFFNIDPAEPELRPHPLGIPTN
Test: GPCR radioligand binding assay, [3H]-LSD displacement, HEK293 membranes
Conditions: 5-HT6; replicate exp_2

| COMPOUND | %inh 5-HT6 exp_2 [%] |
| --- | --- |
| COC(=O)c1c(C)nc(C2CC2)[nH]c1=O [F1] | 44 |
| NC1CCc2ccccc21 (stereo not shown) [B4] | 17 |
| COc1ccc(C2=CCNCC2)cc1 [G1] | 49 |
| CCc1nccn1CC(=O)O [G11] | 5 |
| O=C1CNCCN1c1ccccc1 [B2] | 44 |
| Cc1cnc(C(F)(F)F)cn1 [B9] | 33 |
| Cc1ccc(-c2ccc(O)cc2)cc1 [D7] | 38 |

----------
Target: human thrombin (Homo sapiens)
Construct: human thrombin; purchased Sigma-Aldrich
Test: Protease inhibitory assay, chromogenic substrate S-2238
Format: biochemical
Details: Thrombin primary screening; substrate 40 µM; cmpd conc 500 µM
Classification field: enter yes (1) for V0 / Vi values not below 1, no (0) for values below it.

| MOLECULE | SUBJECT OF TEST | LABEL VALUE |
| --- | --- | --- |
| CC(=O)c1sc(-c2ccc(O)cc2)nc1C [SX-E1] | human thrombin (Homo sapiens) | yes (1) |
| O=C1NC(=O)/C(=C\c2cccs2)N1 | human thrombin (Homo sapiens) | yes (1) |
| Cc1cc(-c2ccccc2)n[nH]1 | human thrombin (Homo sapiens) | no (0) |
| O=C(CN1CCNCC1)c1ccccc1 | human thrombin (Homo sapiens) | yes (1) |
| Fc1ccc2c(C3CCNCC3)c[nH]c2c1 | human thrombin (Homo sapiens) | no (0) |
| NC(c1ccccc1)c1ccccc1 | human thrombin (Homo sapiens) | yes (1) |
| O=C(O)C1CCCN(C(=O)N2CCCC2)C1 (centres unmarked) | human thrombin (Homo sapiens) | yes (1) |
| Cc1cc2ccccc2nc1N | human thrombin (Homo sapiens) | no (0) |
| CC1(C)OC(=O)c2cc(Br)c(O)cc2O1 | human thrombin (Homo sapiens) | yes (1) |
| N#CC1CCS(=O)(=O)C1 (centres unmarked) | human thrombin (Homo sapiens) | no (0) |
| O=C(O)c1ccc(CN2CCOCC2)cc1 | human thrombin (Homo sapiens) | yes (1) |
| Oc1ccccc1N1CCCCC1 | human thrombin (Homo sapiens) | no (0) |
| c1ccc2oc(C3CCCNC3)nc2c1 (centres unmarked) | human thrombin (Homo sapiens) | no (0) |
| CN(C)c1cc(CN)ccn1 | human thrombin (Homo sapiens) | no (0) |
| O=C1CC(CSc2ccc(Cl)cc2)=NN1 | human thrombin (Homo sapiens) | no (0) |
| CC(=O)c1ccc2c(c1)CCCN2 | human thrombin (Homo sapiens) | no (0) |
| Cc1nccn1Cc1cccc(C#N)c1 | human thrombin (Homo sapiens) | no (0) |
| O=C1CCCc2occc21 | human thrombin (Homo sapiens) | no (0) |
| Cn1nc(C(F)(F)F)cc1O | human thrombin (Homo sapiens) | yes (1) |

----------
Target: human 5-HT1A receptor (Homo sapiens, UniProt P08908)
Construct: expressed in transfected cells
Sequence (P08908 1-422): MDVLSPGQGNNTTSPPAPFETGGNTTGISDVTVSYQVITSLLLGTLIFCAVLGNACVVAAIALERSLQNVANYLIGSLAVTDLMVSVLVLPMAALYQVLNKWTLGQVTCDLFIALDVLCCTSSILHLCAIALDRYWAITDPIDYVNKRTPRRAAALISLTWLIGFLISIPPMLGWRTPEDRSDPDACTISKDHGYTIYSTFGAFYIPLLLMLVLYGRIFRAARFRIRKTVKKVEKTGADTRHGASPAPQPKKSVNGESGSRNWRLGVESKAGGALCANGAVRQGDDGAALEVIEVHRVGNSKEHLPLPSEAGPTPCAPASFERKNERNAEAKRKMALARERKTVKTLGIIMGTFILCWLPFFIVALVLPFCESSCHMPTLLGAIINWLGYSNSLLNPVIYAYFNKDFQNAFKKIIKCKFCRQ
Test: GPCR radioligand binding assay, [3H]-8-OH-DPAT displacement, HEK293 membranes
Conditions: 10 µM; read-out: 5-HT1A % Inhibition by plate position

| COMPOUND | inhibition at 10 µM [%] |
| --- | --- |
| O=C(c1ccccc1F)N1CCNCC1 | 15 |
| Nc1nnc2ccccn12 | 0 |
| CC(=O)c1sc(-c2ccc(O)cc2)nc1C [E1] | 0 |
| c1cnc2cccnc2c1 | 0 |
| Cn1c(N)nc2ccccc21 | 0 |
| O=C1NC(=O)/C(=C\c2cccs2)N1 | 3.44 |
| Nc1nnc(-c2cccs2)[nH]1 | 0.863 |
| Cc1cc2ccccc2nc1N | 0 |
| Oc1ccccc1N1CCCCC1 | 0 |
| c1ccc(Nc2nncs2)cc1 | 0 |
| CC1CCc2sc(C(=O)O)cc2C1 (stereo not shown) | 0 |
| NC(=O)N1CCC(C(=O)O)CC1 | 0.751 |
| CS(=O)(=O)Nc1ccc(C(=O)O)cc1 | 9 |
| O=C(O)c1cnc(-c2ccccc2)s1 | 2.52 |
| c1cnc2ncccc2c1 | 22 |
| O=C(O)C1CCN(c2ncccn2)CC1 | 3 |

----------
Target: bovine factor Xa (Bos taurus, UniProt P00743)
Construct: bovine factor Xa, Chromogenix, 2 nkat/mL; purchased Chromogenix
Sequence (P00743 234-492 limits assumed): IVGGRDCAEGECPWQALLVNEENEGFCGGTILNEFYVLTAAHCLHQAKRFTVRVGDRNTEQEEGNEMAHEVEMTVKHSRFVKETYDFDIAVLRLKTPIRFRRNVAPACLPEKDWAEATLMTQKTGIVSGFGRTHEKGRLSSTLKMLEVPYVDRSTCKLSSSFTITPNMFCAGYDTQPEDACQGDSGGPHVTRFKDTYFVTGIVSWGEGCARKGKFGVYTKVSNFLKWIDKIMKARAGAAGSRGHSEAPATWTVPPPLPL
Sequence (P00743 41-180 partner limits assumed): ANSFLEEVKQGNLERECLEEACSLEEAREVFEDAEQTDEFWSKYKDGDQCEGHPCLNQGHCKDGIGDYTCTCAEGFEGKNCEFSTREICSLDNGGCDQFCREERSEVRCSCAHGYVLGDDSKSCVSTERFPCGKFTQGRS
Experiment: Protease inhibitory assay, chromogenic substrate S-2222
Type: biochemical
Conditions: FactorXa primary screening; substrate 100 µM; cmpd conc 200 µM
Here, each record is paired with measured V0 / Vi data.

| COMPOUND | V0 / Vi |
| --- | --- |
| NC(=O)N1CCC(C(=O)O)CC1 | 1.16 |
| CS(=O)(=O)c1ccc(OC(F)(F)F)cc1 | 0.94 |
| O=C1NC(=O)/C(=C\c2cccs2)N1 | 1.27 |
| O=C(CN1CCNCC1)c1ccccc1 | 0.97 |
| Oc1nnc(-c2ccccc2)o1 | 1.07 |
| Nc1ccc(SC(F)F)cc1 [SX-D1] | 0.99 |
| O=C(c1ccccc1)N1CCC(CO)CC1 | 0.93 |

----------
Molecular target: human 5-HT6 receptor (Homo sapiens)
Construct: expressed in transfected cells
Test: GPCR radioligand binding assay, [3H]-LSD displacement, HEK293 membranes
Conditions: 10 µM
Dear colleague, classification is by 5-HT6 % Inhibition by plate position, with ranges listed here: low: < 30%; mid: ≥ 30% and < 40%; high: ≥ 40%

| MOLECULE | LABEL VALUE |
| --- | --- |
| O=C1CCCc2occc21 | mid |
| CCn1cnc2ccccc21 | low |
| O=c1[nH]ncc2c1oc1ccccc12 | low |
| Nc1ccc(-c2ccccc2)cc1C(=O)O | mid |
| N[C@H]1c2ccccc2C[C@H]1CO | low |
| CC1(C)OC(=O)c2cc(Br)c(O)cc2O1 | high |
| CC(=O)c1ccc2c(c1)CNCC2 | low |
| O=C(O)c1cccc(Nc2ncccn2)c1 | high |
| Fc1ccc(CC2CCCNC2)cc1 (stereo not drawn) | high |
| c1cnc2c(c1)NCCC2 | low |
| O=C(CN1CCCC1)c1ccccc1Cl | low |
| O=C(O)C1CCCN(C(=O)N2CCCC2)C1 (stereo not drawn) | low |
| O=c1ccc2c([nH]1)CCCC2 | high |
| O=c1[nH]c2c(s1)CCC2 | high |
| O=C1NC(=O)C2(CCc3ccccc32)N1 (stereo not drawn) | mid |
| COc1ccccc1N1CCNCC1 | high |
| Cc1nc(-c2ccccc2)cs1 | high |
| O=C1CSC(Nc2ccc(F)cc2)=N1 | mid |
| FC1(F)CNCC(F)(F)O1 | mid |
| O=C(CN1CCNCC1)c1ccccc1 | high |
| Oc1ccc(-n2cncn2)cc1 | mid |
| N#Cc1ccc(C(=O)N2CCOCC2)cc1 | mid |
| CCc1ccc(NC2=NCCCS2)cc1 [D2] | low |
| NC1CCc2ccccc21 (stereo not drawn) | low |
| CCN(CC)c1cccc(C)c1 | mid |
| Oc1ccc(C2CCNCC2)cc1 | high |
| COc1ccc(C2=CCNCC2)cc1 | high |
| O=C(c1ccccc1)N1CCC(CO)CC1 | mid |

----------
Target: human 5-HT6 receptor (Homo sapiens)
Construct: expressed in transfected cells
Assay: GPCR radioligand binding assay, [3H]-LSD displacement, HEK293 membranes
Conditions: 5-HT6; replicate exp_2
VALUE KIND: %inh 5-HT6 exp_2 (%)

| COMPOUND | UNIT ABBREV | OBSERVED RESULT |
| --- | --- | --- |
| CC1C(=O)NC(=O)N1c1ccc(Cl)cc1 (stereo not shown) [E3] | % | 44 |
| Oc1nnc(-c2ccccc2)o1 [F7] | % | 14 |
| CC(=O)c1ccc2c(c1)CCCN2 [C7] | % | 8 |
| N#CC1CCS(=O)(=O)C1 (stereo not shown) [F2] | % | 22 |
| CC(=O)c1ccc2c(c1)CNCC2 [C8] | % | -1 |
| N#CCCN1CCc2ccccc21 [F4] | % | 20 |
| Fc1ccc(CC2CCCNC2)cc1 (stereo not shown) [C1] | % | 37 |
